Substrate: PET
Test: Proxy for plastic degradation [Released monomer concentration (HPLC/LC-MS) (MHET)]
Details: pH 9; part of the chain shown
measurement.type: Proxy for plastic degradation
Output should be the measured figure followed by the unit it is expressed in.

Below are worked cases with known answers.
| protein | Proxy for plastic degradation |
| --- | --- |
| unnamed (protein) MNFPRASRLMQAAVLGGLMAVSAAATAQTNPYARGPNPTAASLEASAGPFTVRSFTVSRPSGYGAGTVYYPTNAGGTVGAIAIVPGYTARQSSIKWWGPRLASHGFVVITIDTNSTLDQPSSRSSQQMAALRQVASLNGTSSSPIYGKVDTARMGVMGWSMGGGGSLISAANNPSLKAAAPQAPWDSSTNFSSVTVPTLIFACENDSIAPVNSSALPIYDSMSRNAKQFLEINGGSHSCANSGNSNQALIGKKGVAWMKRFMDNDTRYSTFACENPNSTRVSDFRTANCS | 12700 nM |
| unnamed (protein) NPYARGPNPTAASLEASAGPFTVRSFTVSRPSGYGAGTVYYPTNAGGTVGAIAIVPGYTARQSSIKWWGPRLASHGFVVITIDTNSTLDQPSSRSSQQMAALRQVASLNGTSSSPIYGKVDTARMGVMGHSMGGGGSLISAANNPSLKAAAPQAPWDSSTNFSSVTVPTLIFACENDSIAPVNSSALPIYDSMSRNAKQFLEINGGSHSCANSGNSNQALIGKKGVAWMKRFMDNDTRYSTFACENPNSTRVSDFRTANCS | 20 nM |

Kindly indicate its recorded Proxy for plastic degradation. Item: unnamed (protein) NPYARGPNPTAASLEASAGPFTVRSFTVSRPSGYGAGTVYYPTNAGGTVGAIAIVPGYTARQSSIKWWGPRLASHGFVVITIDTNSTLDQPSSRSSQQMAALRQVASLNGTSSSPIYGKVDTARMGVMGWSMGGGGSLISAANNPSLKAAAPQAPWDSSTNFSSVTVPTLIFAAENDSIAPVNSSALPIYDSMSRNAKQFLEINGGSHSAANSGNSNQALIGKKGVAWMKRFMDNDTRYSTFACENPNSTRVSDFRTANCS 0.5 nM

Kindly indicate its recorded Proxy for plastic degradation. Item: unnamed (protein) NPYARGPNPTAASLEASAGPFTVRSFTVSRPSGYGAGTVYYPTNAGGTVGAIAIVPGYTARQSSIKWWGPRLASHGFVVITIDTNSTLDQPSSRSSQQMAALRQVASLNGTSSSPIYGKVDTARMGVMGWSMGGGGSLISAANNPSLKAAAPQAPWDSSTNFSSVTVPTLIFACENDSIAPVNSSALPIYDSMSRNAKQFLEINGGSHFCANSGNSNQALIGKKGVAWMKRFMDNDTRYSTFACENPNSTRVSDFRTANCS 4 nM
